tested_target: T1, rgyr_Δlatch (Thermotoga maritima, UniProt O51934 1-1104, del389-459)
T1 sequence: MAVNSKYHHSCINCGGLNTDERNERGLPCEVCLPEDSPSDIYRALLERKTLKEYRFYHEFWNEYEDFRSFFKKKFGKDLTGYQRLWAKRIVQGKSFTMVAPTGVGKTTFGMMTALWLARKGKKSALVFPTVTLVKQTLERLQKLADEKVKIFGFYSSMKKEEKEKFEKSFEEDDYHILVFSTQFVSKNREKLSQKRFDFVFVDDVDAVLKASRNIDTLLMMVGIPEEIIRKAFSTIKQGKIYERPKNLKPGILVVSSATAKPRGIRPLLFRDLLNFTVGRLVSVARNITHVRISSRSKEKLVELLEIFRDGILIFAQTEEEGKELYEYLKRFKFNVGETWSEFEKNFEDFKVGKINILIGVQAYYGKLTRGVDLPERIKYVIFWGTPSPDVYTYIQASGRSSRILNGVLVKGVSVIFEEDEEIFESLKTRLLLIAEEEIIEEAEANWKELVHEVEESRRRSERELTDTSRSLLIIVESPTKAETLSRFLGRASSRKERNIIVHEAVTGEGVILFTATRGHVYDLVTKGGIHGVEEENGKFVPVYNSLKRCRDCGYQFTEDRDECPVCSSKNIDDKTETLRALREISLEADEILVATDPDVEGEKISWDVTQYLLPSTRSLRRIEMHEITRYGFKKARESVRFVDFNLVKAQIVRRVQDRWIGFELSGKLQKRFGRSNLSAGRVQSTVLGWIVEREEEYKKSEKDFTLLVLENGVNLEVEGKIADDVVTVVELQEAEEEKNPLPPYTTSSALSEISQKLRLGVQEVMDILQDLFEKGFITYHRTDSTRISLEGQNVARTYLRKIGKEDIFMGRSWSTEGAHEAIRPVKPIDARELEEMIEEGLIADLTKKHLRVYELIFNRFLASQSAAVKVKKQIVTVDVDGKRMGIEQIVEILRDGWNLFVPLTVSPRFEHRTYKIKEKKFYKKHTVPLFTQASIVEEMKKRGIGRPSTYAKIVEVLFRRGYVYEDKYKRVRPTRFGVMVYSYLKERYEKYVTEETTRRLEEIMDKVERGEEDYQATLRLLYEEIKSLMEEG
procedure_text: fluorescence anisotropy
property_label: Kd (nM)
Report the value in nM with no unit label.

Given the binder 60 b ssDNA (ssDNA) DNA: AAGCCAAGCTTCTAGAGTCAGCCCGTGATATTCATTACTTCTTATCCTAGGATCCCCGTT , write its reported Kd.
33
